Target: HLA-A2.1 (Homo sapiens, UniProt P04439, D140Y/D185E/D98H/E176V/E277Q/G131W/G231S/I119V/I121R/I166T/I218V/L300P/L318F/N151K/N90K/P208A/P217A/Q86G/Q94H/R138H/R169H/T345S)
Test: HLA-A2.1 surface expression on peptide-coated T2 cells (indirect flow cytometry, BB7.2)
Assay type: binding
Conditions: compared with T2 without peptide / control influenza peptide
quantityKind: surface HLA-A2.1 expression on peptide-pulsed T2 cells (in words)

| sequenceRecord | reported |
| --- | --- |
| KLNDILLIQL [PR7I] | strong peptide binding |
| KLNDVLLIQL [PR7V] | strong peptide binding |
